- target_desc: PPARδ-RXRα heterodimer (Homo sapiens)
- Sequence (Q03181 whole entry): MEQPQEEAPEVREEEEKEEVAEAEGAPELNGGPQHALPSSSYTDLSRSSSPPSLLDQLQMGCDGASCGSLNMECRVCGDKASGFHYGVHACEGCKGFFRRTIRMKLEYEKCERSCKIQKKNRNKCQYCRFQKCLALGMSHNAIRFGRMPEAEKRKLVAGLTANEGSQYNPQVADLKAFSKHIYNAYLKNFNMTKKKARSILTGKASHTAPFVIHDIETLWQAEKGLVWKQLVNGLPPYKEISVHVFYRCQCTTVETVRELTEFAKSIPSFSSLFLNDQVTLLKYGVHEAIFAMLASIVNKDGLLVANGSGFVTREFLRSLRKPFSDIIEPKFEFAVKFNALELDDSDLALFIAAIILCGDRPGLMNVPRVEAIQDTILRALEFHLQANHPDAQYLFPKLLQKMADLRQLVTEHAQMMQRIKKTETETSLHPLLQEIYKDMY
- Sequence (P19793 whole entry partner): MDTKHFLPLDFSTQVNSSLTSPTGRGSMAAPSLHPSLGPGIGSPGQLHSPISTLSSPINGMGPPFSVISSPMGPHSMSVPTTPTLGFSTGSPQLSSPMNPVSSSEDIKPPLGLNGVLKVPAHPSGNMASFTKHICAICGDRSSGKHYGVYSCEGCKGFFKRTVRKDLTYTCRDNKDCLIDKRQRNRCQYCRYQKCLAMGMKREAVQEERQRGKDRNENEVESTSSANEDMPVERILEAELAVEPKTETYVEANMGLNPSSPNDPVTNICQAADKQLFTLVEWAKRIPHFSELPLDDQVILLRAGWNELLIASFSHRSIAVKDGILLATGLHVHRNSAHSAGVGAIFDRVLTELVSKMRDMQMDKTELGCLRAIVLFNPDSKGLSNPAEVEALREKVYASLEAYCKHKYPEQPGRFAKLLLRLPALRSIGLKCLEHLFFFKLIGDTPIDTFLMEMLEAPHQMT
- assay_comment: PPARδ-RXRα heterodimer ligand activity (luciferase reporter)
- experimental_conditions: transformant of Reference Example 9a of WO03/099793, 36-48 hr, concentration showing 50% of the maximum induction rate
measurement_type: EC50
Quick note: number first, unit second.

INPUT: Data request, read-out EC50, for CCCOc1ccc(CCCOc2nn(C)cc2CC(=O)O)c(Oc2ncc(C(F)(F)F)cc2Cl)c1 [Example 113]
OUTPUT: 0.044 µM

INPUT: Data request, read-out EC50, for CCCOc1cc(CCCOc2c(CC(=O)O)cccc2OC)n(Cc2ccc(Cl)cc2Cl)n1 [Example 57]
OUTPUT: 0.021 µM

INPUT: Data request, read-out EC50, for COCOc1ccc(CCCOc2nn(Cc3ccccc3)cc2CC(=O)O)c(Oc2ncc(C(F)(F)F)cc2Cl)c1 [Example 112]
OUTPUT: 0.057 µM

INPUT: Data request, read-out EC50, for CC(C)Oc1ccc(CCCCOc2cc(CCC(=O)O)n(-c3ccccc3)n2)c(Oc2ncc(C(F)(F)F)cc2Cl)c1 [Example 156]
OUTPUT: 0.0034 µM

INPUT: Data request, read-out EC50, for CC(C)Oc1ccc(CCCOc2cc(CCC(=O)O)n(C)n2)c(Oc2ncc(C(F)(F)F)cc2Cl)c1 [Example 139]
OUTPUT: 0.017 µM

INPUT: Data request, read-out EC50, for COc1cccc(CC(=O)O)c1OCCCc1cc(OC(C)C)nn1Cc1ccc(Cl)cc1C [Example 68]
OUTPUT: 0.074 µM

INPUT: Data request, read-out EC50, for CC(C)Oc1ccc(CCCOc2cc(CCC(=O)O)n(C(C)C)n2)c(Oc2ncc(C(F)(F)F)cc2Cl)c1 [Example 142]
OUTPUT: 0.014 µM

INPUT: Data request, read-out EC50, for CC(C)Oc1ccc(CCCOc2cc(CCC(=O)O)n(-c3ccccc3)n2)c(OCc2ccc(Cl)cc2Cl)c1 [Example 160]
OUTPUT: 0.006 µM

INPUT: Data request, read-out EC50, for COc1cccc(CC(=O)O)c1OCCCc1cc(OC(C)C)nn1Cc1ccc(Cl)cc1OC(C)C [Example 70]
OUTPUT: 0.06 µM

INPUT: Data request, read-out EC50, for CC(C)Oc1ccc(CCCOc2nn(C)cc2CC(=O)O)c(Oc2ncc(Cl)cc2Cl)c1 [Example 132]
OUTPUT: 0.088 µM

INPUT: Data request, read-out EC50, for COCCOc1ccc(CCCOc2nn(C)cc2CC(=O)O)c(Oc2ncc(C(F)(F)F)cc2Cl)c1 [Example 122]
OUTPUT: 0.076 µM

INPUT: Data request, read-out EC50, for COc1cccc(CC(=O)O)c1OCCCc1cc(OC(C)C)nn1Cc1ccc(Cl)cc1Cl [Example 16]
OUTPUT: 0.014 µM

INPUT: Data request, read-out EC50, for CCn1nc(OCCCCc2ccc(OC(C)C)cc2Oc2ncc(C(F)(F)F)cc2Cl)cc1CCC(=O)O [Example 158]
OUTPUT: 0.017 µM

INPUT: Data request, read-out EC50, for CC(C)Oc1ccc(CCCOc2cc(CCC(=O)O)n(-c3ccccc3)n2)c(Oc2ncc(C(F)(F)F)cc2Cl)c1 [Example 136]
OUTPUT: 0.0025 µM

INPUT: Data request, read-out EC50, for CCn1cc(CC(=O)O)c(OCCCc2ccc(OC(C)C)cc2Oc2ncc(C(F)(F)F)cc2Cl)n1 [Example 117]
OUTPUT: 0.0043 µM

INPUT: Data request, read-out EC50, for COc1cccc(CC(=O)O)c1OCCCc1ccc(OC(C)C)cc1Oc1ncc(Cl)cc1Cl [Example 119]
OUTPUT: 0.039 µM

The measurements presented in this section are drawn from patent US20080051418A1.
